- Target under test: SARS-CoV-2 Mpro (Severe acute respiratory syndrome coronavirus 2, UniProt P0DTD1)
- Assay method text: fluorogenic quenched peptide cleavage assay
- Type: biochemical
Answer each item with its documented IC50.
Numbers only, in nM.

Parameters: items (list). Returns: IC50 for each item.
1. COc1ccc(SC2=C(Sc3ccc(OC)cc3)C(=O)c3ccccc3C2=O)cc1
2. CC(=O)NC1=CC(=O)c2c(cccc2[N+](=O)[O-])C1=O
3. O=C1C(Sc2ccccc2)=C(Sc2ccccc2)C(=O)c2ccccc21

Found:
1: 410; 2: 5000; 3: 630

----------
- Target under test: SARS-CoV-2 Mpro (Severe acute respiratory syndrome coronavirus 2, UniProt P0DTD1)
- Assay method text: biochemical
- Details: read-out: Mpro % inhibition at 10 µM
Rule: inhibition at 10 µM of 30% or more gives Fulfilled; anything lower gives Not fulfilled.

[
  {
    "Compound": "O=C1C(Sc2ccc(Br)cc2)=C(Sc2ccc(Br)cc2)C(=O)c2ccccc21 [compound 380, 380]",
    "Assigned category": "Not fulfilled"
  },
  {
    "Compound": "CC1(C)OC2=C(CC1Br)C(=O)C(=NNc1ccccc1)c1ccccc12 (stereo not drawn) [compound 666, 666]",
    "Assigned category": "Not fulfilled"
  },
  {
    "Compound": "O=C1C(Sc2ccccc2)=C(Sc2ccccc2)C(=O)c2ccccc21 [compound 379]",
    "Assigned category": "Fulfilled"
  },
  {
    "Compound": "CC1(C)OC2=C(C(=O)C(=O)c3ccccc32)C1n1cc(-c2ccccc2)nn1 (stereo not drawn) [compound 159]",
    "Assigned category": "Fulfilled"
  },
  {
    "Compound": "Cc1ccc(S(=O)(=O)n2cc(CN(C3=CC(=O)c4ccccc4C3=O)c3ccc(Br)cc3)nn2)cc1 [compound 314]",
    "Assigned category": "Fulfilled"
  }
]

Lookup: Please tell me: is the compound COc1ccc(SC2=C(Sc3ccc(OC)cc3)C(=O)c3ccccc3C2=O)cc1 [compound 382] at or over 30% in terms of inhibition at 10 µM?
Found: Fulfilled

Lookup: Please tell me: is the compound CC1(C)OC2=C(C(=O)C(=O)c3ccccc32)C1n1cc(CNC2=C(Br)C(=O)c3ccccc3C2=O)nn1 (stereo not drawn) [compound 191] at or over 30% in terms of inhibition at 10 µM?
Found: Fulfilled

Lookup: Please tell me: is the compound CC(=O)NC1=CC(=O)c2c(cccc2[N+](=O)[O-])C1=O [compound 415, 415] at or over 30% in terms of inhibition at 10 µM?
Found: Fulfilled

Lookup: Please tell me: is the compound Cc1ccc(S(=O)(=O)c2cccc3c2C(=O)c2ccccc2C3=O)cc1 [compound 477, 477] at or over 30% in terms of inhibition at 10 µM?
Found: Not fulfilled

Lookup: Please tell me: is the compound Cc1ccc(S(=O)(=O)n2cc(CNC3=C(Br)C(=O)c4ccccc4C3=O)nn2)cc1 [compound 321, 321] at or over 30% in terms of inhibition at 10 µM?
Found: Fulfilled

Lookup: Please tell me: is the compound CC1(C)CC2=C(O1)c1ccccc1C(=NNc1ccccc1)C2=O [compound 673, 673] at or over 30% in terms of inhibition at 10 µM?
Found: Not fulfilled

Lookup: Please tell me: is the compound Cc1ccc(S(=O)(=O)n2cc(CNC3=CC(=O)c4ccccc4C3=O)nn2)cc1 [compound 319] at or over 30% in terms of inhibition at 10 µM?
Found: Not fulfilled

Data origin: paper doi:10.1101/2022.01.05.475095v1
